system: Wolbachia pipientis; test: Anti-Wolbachia Cell-Based Screen; format: functional; set-up: scale not given: in the data most compounds retested in dose-response had high values; conditions: 5 µM
Hit rate of the full screen: of about 48,000 compounds, about 13,000 (27%) showed an effect of 50% or more. Some of the results follow.
Give Percent Effect for every item shown.
Give bare numbers, in %.

COc1ncnc(N)c1CNCCc1ccccc1 : 127.7

# per-item lookup of Percent Effect; items listed below
1. Cc1nc(C2(NCc3ccc(C#N)cc3F)CCCCC2)no1
2. Cc1cnc(N2C[C@H]3CCN(CC4CC4)C[C@@H]3C2)nc1.O=C(O)C(F)(F)F
3. COCCn1c(C(=O)NC(C(N)=O)C(C)C)cc2ccccc21 (stereo not given)
4. Cn1ccnc1CN1CCN2C[C@H](OCc3cccnc3)C[C@H]2C1.O=C(O)C(F)(F)F.O=C(O)C(F)(F)F.O=C(O)C(F)(F)F
5. Cc1nc(C2(NCc3cc(C#N)ccc3F)CCCCC2)no1

// result
2.337
6.173
-3.087
-4.128
11.5

# per-item lookup of Percent Effect; items listed below
1. CN(CCOCC1CC1)C(=O)Nc1ccc(C#N)c(Cl)c1
2. CCN(CC)C[C@H]1CN2CC[C@H]1C[C@@H]2CNC(=O)c1ccco1
3. COc1ccc(CCN)cc1-c1ccc(S(C)(=O)=O)cc1
4. Cl.N#CC1(C(=O)NCC2CCC3(CCNCC3)O2)CC1 (stereo not given)
5. COCC(=O)NC(C)Cc1cccc(OC)c1 (stereo not given)
6. COc1ccc(CC(C)Nc2cccc(F)c2)cc1 (stereo not given)
7. Cc1nc(C)c(CC(=O)N2CCN(CC(C)C)CC2)c(=O)[nH]1

// result
1: 80.92; 2: -16.25; 3: -7.949; 4: -12.24; 5: -11.91; 6: 103.5; 7: -15.6

# per-item lookup of Percent Effect; items listed below
1. CN(C)CCN(Cc1ccco1)C(=O)Cc1cn2ccsc2n1
2. CCc1noc(CN(C)CCC(=O)Nc2ccc(C#N)c(Cl)c2)n1
3. Cc1nc(C2(NCc3cccc(F)c3F)CCCCC2)no1

// result
[1.866, 4.268, -2.659]

# per-item lookup of Percent Effect; items listed below
1. CN1CCN(Cc2ccoc2)Cc2cccnc21
2. O=C(COc1ccc(Cl)cc1Cl)N1CCCSCC1CN1CCOCC1 (stereo not given)
3. O=C(NC[C@H]1C[C@@H]2CCN1C[C@@H]2CN1CCCCC1)Nc1ccccc1
4. O=C(c1ccncc1)N1CCN2C[C@H](Oc3cncnc3)C[C@H]2C1
5. Cc1cc(CN2C[C@@H]3COC[C@]3(CNC(=O)c3ccco3)C2)no1.O=C(O)C(F)(F)F
6. CCc1nnc(CN(C)C(=O)CN2CC(c3ccccc3)CC2=O)o1 (stereo not given)

// result
1: -15.03; 2: -6.318; 3: -4.847; 4: 8.644; 5: -9.998; 6: 5.104

# per-item lookup of Percent Effect; items listed below
1. N#Cc1ccc(NC2CCN(c3ncccn3)CC2)cc1Cl
2. Cc1nc(C2(NCC(=O)NC(=O)Nc3ccccc3)CCCCC2)no1
3. O=C(O)C(F)(F)F.O=C(O)C(F)(F)F.O=C(O)C(F)(F)F.c1cc(CN2CCN3C[C@H](Oc4cncnc4)C[C@H]3C2)ccn1
4. CN(C)CCOCc1cncc2c1CCN(C1CCOC1)C2.O=C(O)C(F)(F)F.O=C(O)C(F)(F)F.O=C(O)C(F)(F)F (stereo not given)
5. Cl.NC(CC1CCCCC1)c1ccccc1 (stereo not given)
6. CN(C)CCN1CCN(CC2CC2)c2ncccc2C1
7. c1ccc(CNc2ncc(CN3CC[C@H]4CC[C@@H](C3)N4)cn2)cc1

// result
[-9.238, 112.9, 106.9, 106.1, -2.613, 104.8, -14.93]

// query Dear colleague, I am looking for the recorded Percent Effect of the following molecule: `Cc1cnc(N2C[C@H]3CCN(CC4CC4)C[C@H]3C2)nc1.O=C(O)C(F)(F)F`
// result 15.24
